The values you see were collected from paper PMC4463457.

B1: VSV-SNAP-hD3 (VSV- and SNAP-tagged human dopamine D3 receptor) [modified: SNAP tag covalently labelled with SNAP-Lumi4-Tb or SNAP-Red; SNAP tag covalently labelled with SNAP-Lumi4-Tb or SNAP-Red] [human] / … (parent)
chain: MASLSQLSGHLNYTCGAENSTGASQARPHAYYALSYCALILAIVFGNGLVCMAVLKERALQTTTNYLVVSLAVADLLVATLVMPWVVYLEVTGGVWNFSRICCDVFVTLDVMMCTASILNLCAISIDRYTAVVMPVHYQHGTGQSSCRRVALMITAVWVLAFAVSCPLLFGFNTTGDPTVCSISNPDFVIYSSVVSFYLPFGVTVLVYARIYVVLKQRRRKRILTRQNSQCNSVRPGFPQQTLSPDPAHLELKRYYSICQDTALGGPGFQERGGELKREEKTRNSLSPTIAPKLSLEVRKLSNGRLSTSLKLGPLQPRGVPLREKKATQMVAIVLGAFIVCWLPFFLTHVLNTHCQTCHVSPELYSATTWLGYVNSALNPVIYTTFNIEFRKAFLKILSC

# Variants of: B1
# test_method_notes: htrFRET
# particulars: with itself; HEK293T cells transfected with increasing amounts of construct; read off a plot
measurement_kind: ratio to parent

mutation_spec	ratio to parent
chain 1 Y31A Y32A L34A S35A	1

Items follow; give ratio to parent for each.
1. chain 1 D187A I190A V194A L199A
2. chain 1 F394A L395A K396A
3. chain 1 R210A Y212A V213A K216A

Reply text:
0.89
0.5
0.76
